Biological target: T1, human glycophorin A on human red blood cells or red blood cell membranes (human, UniProt P02724 20-150)
T1 construct: whole, on cells; also called hRBC; human RBC membranes
T1 sequence (looked up): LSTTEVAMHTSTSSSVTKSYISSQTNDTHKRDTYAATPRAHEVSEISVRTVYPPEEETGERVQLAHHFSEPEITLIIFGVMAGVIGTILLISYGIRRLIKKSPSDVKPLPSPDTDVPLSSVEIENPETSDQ
Assay: Fab on intact human RBC, unbound Fab by ELISA; 60 min after 200-fold dilution
MEASUREMENT_TYPE: percentage of input antibody bound (%)
Give the number; % is assumed, so skip it.

For TPP-7783, affinity matured 6C12 Fab (Fab, V domains shown, Tested as Fab) VH: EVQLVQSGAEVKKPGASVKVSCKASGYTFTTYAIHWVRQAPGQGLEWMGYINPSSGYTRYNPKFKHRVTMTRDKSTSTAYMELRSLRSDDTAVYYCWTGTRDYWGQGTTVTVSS VL: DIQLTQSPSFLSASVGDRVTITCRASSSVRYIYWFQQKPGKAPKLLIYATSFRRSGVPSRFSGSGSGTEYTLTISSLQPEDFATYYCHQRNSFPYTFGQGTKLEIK , what is its reported percentage of input antibody bound? 84

For TPP-5906, humanized and germlined 6C12 Fab; VL: (S24R, A26S, S49A, P54Q, F95Y); VH: (I48M, D56G, D66G, L70M, T72R) (Fab, V domains shown, The text says that a 6xHIS tag is present on the Fabs in the peptide ELISA; it is not in the printed chains) VH: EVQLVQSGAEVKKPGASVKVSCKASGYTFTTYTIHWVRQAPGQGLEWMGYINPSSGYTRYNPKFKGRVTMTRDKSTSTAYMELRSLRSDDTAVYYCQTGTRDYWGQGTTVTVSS VL: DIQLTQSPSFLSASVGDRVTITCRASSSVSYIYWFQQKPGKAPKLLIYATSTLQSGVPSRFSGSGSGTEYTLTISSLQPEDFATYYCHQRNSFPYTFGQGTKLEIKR , what is its reported percentage of input antibody bound? 8

For TPP-7796, affinity matured 6C12 Fab (Fab, V domains shown, Tested as Fab) VH: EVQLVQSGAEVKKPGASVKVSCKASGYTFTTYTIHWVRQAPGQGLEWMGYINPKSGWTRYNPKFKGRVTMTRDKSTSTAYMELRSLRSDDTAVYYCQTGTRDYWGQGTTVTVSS VL: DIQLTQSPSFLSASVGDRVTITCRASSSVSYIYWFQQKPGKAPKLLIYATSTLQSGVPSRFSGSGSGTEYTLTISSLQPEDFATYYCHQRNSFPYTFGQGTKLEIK , what is its reported percentage of input antibody bound? 15
